Each recorded value in this set is attributed to ChEMBL document CHEMBL4325919.

Assay: Volume of distribution at steady state in Sprague-Dawley rat at 2 mg/kg, po or 1 mg/kg, iv
Assay type: ADME, organism-based
Details: in vivo, read-out: Vdss
Would you kindly list log10(Vd) for each of these molecules?
Hey, these are logged values: log10 of Vd, L/kg being the unit before logging.

Q: Give the reported log10(Vd) for this molecule. NC(=O)c1cc(-c2ccccc2)cc2c(C3CCN(S(=O)(=O)CCCN4CCOCC4)CC3)c[nH]c12
Result: -0.37

Q: Using known records, supply log10(Vd) for NCCS(=O)(=O)N1CCC(c2c[nH]c3c(C(N)=O)cc(-c4ccccc4)cc23)CC1
Result: 0.48

Q: Supply reported log10(Vd) belonging to this molecule: NC(=O)c1cc(-c2ccccc2)cc2c(C3CCN(S(=O)(=O)CCCN4CCCC4)CC3)c[nH]c12
Result: 0.00

Q: In one line, give reported log10(Vd) of the entry NC(=O)c1cc(-c2ccccc2)cc2c(C3CCS(=O)(=O)CC3)c[nH]c12 .
Result: 0.45

Q: Given NC(=O)c1cc(-c2ccc(F)cc2)cc2c(C3CCS(=O)(=O)CC3)c[nH]c12 , respond with its log10(Vd).
Result: 0.57

Q: Recall and state the measured log10(Vd) for CC1(C)CC(c2c[nH]c3c(C(N)=O)cc(-c4ccccc4)cc23)CCS1(=O)=O (stereo not drawn) .
Result: 0.86

Q: Look up and report measured log10(Vd) for this entry: CCS(=O)(=O)N1CCC(c2c[nH]c3c(C(N)=O)cc(-c4ccccc4)cc23)CC1
Result: 0.00

Q: Determine its reported log10(Vd): CC1(C)C[C@H](c2c[nH]c3c(C(N)=O)cc(-c4ccc(F)cc4)cc23)CCS1(=O)=O
Result: 0.67

* * *

Experiment: Kinetic aqueous solubility of the compound by chemiluminescent nitrogen detection assay
Format: physicochemical
Settings: buffer; read-out: Kinetic_solubility
For each of the compounds below, state its solubility kinetic.
# output: bare number, implied unit µM

Q: Return value of solubility kinetic for input CC1(C)CC(c2c[nH]c3c(C(N)=O)cc(-c4ccccc4)cc23)CCS1(=O)=O (configuration not stated) , no commentary.
Result: 39

Q: Provide measured solubility kinetic value, entry: CC1(C)C[C@H](c2c[nH]c3c(C(N)=O)cc(-c4ccc(F)cc4)cc23)CCS1(=O)=O
Result: 32

* * *

Provide the recorded Papp for the entries that follow.
Assay: Permeability of the compound by PAMPA
Type: ADME
Conditions: read-out: permeability

Q: Fill in reported Papp for this entry: CC1(C)CC(c2c[nH]c3c(C(N)=O)cc(-c4ccccc4)cc23)CCS1(=O)=O (stereo unspecified)
Result: 33 ×10⁻⁶ cm/s

Q: Supply Papp value. Item: CCS(=O)(=O)N1CCC(c2c[nH]c3c(C(N)=O)cc(-c4ccccc4)cc23)CC1
Result: 25 ×10⁻⁶ cm/s

Q: Return Papp (reported value) for this compound: NC(=O)c1cc(-c2ccccc2)cc2c(C3CCN(S(=O)(=O)CCCN4CCCC4)CC3)c[nH]c12
Result: 16 ×10⁻⁶ cm/s

Q: Return the recorded Papp value; entry: NCCS(=O)(=O)N1CCC(c2c[nH]c3c(C(N)=O)cc(-c4ccccc4)cc23)CC1
Result: 0.3 ×10⁻⁶ cm/s

Q: Return Papp (reported value) for this compound: NC(=O)c1cc(-c2ccccc2)cc2c(C3CCS(=O)(=O)CC3)c[nH]c12
Result: 27.7 ×10⁻⁶ cm/s

Q: Please look at this compound and report its Papp: NC(=O)c1cc(-c2ccccc2)cc2c(C3CCN(S(=O)(=O)CCCNC4CCCC4)CC3)c[nH]c12
Result: 14 ×10⁻⁶ cm/s

* * *

Please go through the items and note down their clearance.
Assay: Plasma clearance in Beagle dog at 2.03 mg/kg, po or 1.11 mg/kg, iv
Assay type: ADME, organism-based, Canis lupus familiaris
Please respond with the number in mL/min/kg and leave the unit unwritten.

Q: Give the value of clearance reported for the following: CC1(C)C[C@H](c2c[nH]c3c(C(N)=O)cc(-c4ccc(F)cc4)cc23)CCS1(=O)=O
Result: 1.86

Q: Answer with reported clearance of NC(=O)c1cc(-c2ccccc2)cc2c(C3CCS(=O)(=O)CC3)c[nH]c12
Result: 23.6

* * *

Assay: Half life in Sprague-Dawley rat at 2.1 mg/kg, po or 1 mg/kg, iv
Type: ADME, organism-based
Settings: in vivo
Endpoint Name: half-life (h)
Note: unit h is implicit; provide only the numeric part.

Q: Respond only with half-life recorded for CN(C)CCS(=O)(=O)N1CCC(c2c[nH]c3c(C(N)=O)cc(-c4ccccc4)cc23)CC1
Result: 1.75

* * *

Assign half-life to each entry below.
Assay: Half life in Beagle dog at 2.03 mg/kg, po or 1.11 mg/kg, iv
Type: ADME, organism-based, Canis lupus familiaris
Settings: in vivo
Give the value, in units of h, as a plain number.

Q: Determine from records and report half-life for NC(=O)c1cc(-c2ccccc2)cc2c(C3CCS(=O)(=O)CC3)c[nH]c12
Result: 0.949

Q: Item CC1(C)C[C@H](c2c[nH]c3c(C(N)=O)cc(-c4ccc(F)cc4)cc23)CCS1(=O)=O : provide half-life
Result: 20.9

* * *

Test: Volume of distribution at steady state in Sprague-Dawley rat at 2.1 mg/kg, po or 1 mg/kg, iv
Assay type: ADME, organism-based
Details: in vivo, read-out: Vdss
Endpoint Name: Vd (L/kg)
The response must be a number in L/kg with no trailing unit.

Q: Read the entry CN(C)CCS(=O)(=O)N1CCC(c2c[nH]c3c(C(N)=O)cc(-c4ccccc4)cc23)CC1 and write its reported Vd.
Result: 0.84

* * *

Would you kindly list AUC for each of these compounds?
Experiment: AUC in Beagle dog at 2.03 mg/kg, po
Type: ADME, organism-based, Canis lupus familiaris
Conditions: in vivo
Value expressed in ng·h/mL; do not type the unit.

Q: Please give measured AUC of the following entry: CC1(C)C[C@H](c2c[nH]c3c(C(N)=O)cc(-c4ccc(F)cc4)cc23)CCS1(=O)=O
Result: 8200

Q: Give recorded AUC. NC(=O)c1cc(-c2ccccc2)cc2c(C3CCS(=O)(=O)CC3)c[nH]c12
Result: 753

* * *

Assay: Oral bioavailability in Sprague-Dawley rat at 2.1 mg/kg
Type: ADME, organism-based
Settings: in vivo
Endpoint Name: bioavailability (%)
Write down the numeric answer in % and omit the unit.

Q: Kindly indicate its recorded bioavailability. Item: CN(C)CCS(=O)(=O)N1CCC(c2c[nH]c3c(C(N)=O)cc(-c4ccccc4)cc23)CC1
Result: 46

* * *

Assay: AUC in Sprague-Dawley rat at 2 mg/kg, po
Format: ADME, organism-based
Settings: in vivo
Assignment: determine reported AUC for the given molecules.
Answer with the number, then the unit.

Q: Tell us which AUC value is on record for NC(=O)c1cc(-c2ccccc2)cc2c(C3CCS(=O)(=O)CC3)c[nH]c12
Result: 904 ng·h/mL

Q: Identify the reported AUC for the following entry. NC(=O)c1cc(-c2ccc(F)cc2)cc2c(C3CCS(=O)(=O)CC3)c[nH]c12
Result: 1270 ng·h/mL

Q: Quick one: give measured AUC for CC1(C)C[C@H](c2c[nH]c3c(C(N)=O)cc(-c4ccc(F)cc4)cc23)CCS1(=O)=O
Result: 1960 ng·h/mL

Q: Give me measured AUC, please, for this molecule: CCS(=O)(=O)N1CCC(c2c[nH]c3c(C(N)=O)cc(-c4ccccc4)cc23)CC1
Result: 1220 ng·h/mL

Q: Tell us which AUC value is on record for NC(=O)c1cc(-c2ccccc2)cc2c(C3CCN(S(=O)(=O)CCCN4CCCC4)CC3)c[nH]c12
Result: 998 ng·h/mL

Q: For NC(=O)c1cc(-c2ccccc2)cc2c(C3CCN(S(=O)(=O)CCCN4CCOCC4)CC3)c[nH]c12 , write its AUC.
Result: 2030 ng·h/mL

Q: Name the recorded AUC of the item CC1(C)CC(c2c[nH]c3c(C(N)=O)cc(-c4ccccc4)cc23)CCS1(=O)=O (stereo not drawn) in your answer.
Result: 1430 ng·h/mL

Q: # return recorded AUC for input NCCS(=O)(=O)N1CCC(c2c[nH]c3c(C(N)=O)cc(-c4ccccc4)cc23)CC1
Result: 48 ng·h/mL

* * *

Test: Half life in Sprague-Dawley rat at 2 mg/kg, po or 1 mg/kg, iv
Format: ADME, organism-based
Conditions: in vivo
Please go through the items and note down their half-life.
Reply with just the number (in h).

Q: Using the record for NC(=O)c1cc(-c2ccccc2)cc2c(C3CCN(S(=O)(=O)CCCN4CCOCC4)CC3)c[nH]c12 , state its measured half-life.
Result: 1.18

Q: Output measured half-life for this item: NC(=O)c1cc(-c2ccc(F)cc2)cc2c(C3CCS(=O)(=O)CC3)c[nH]c12
Result: 2.2

Q: Supply reported half-life belonging to this compound: CCS(=O)(=O)N1CCC(c2c[nH]c3c(C(N)=O)cc(-c4ccccc4)cc23)CC1
Result: 1.15

Q: For the compound NC(=O)c1cc(-c2ccccc2)cc2c(C3CCN(S(=O)(=O)CCCN4CCCC4)CC3)c[nH]c12 , give its reported half-life.
Result: 4.6

Q: State, in one line, measured half-life of CC1(C)CC(c2c[nH]c3c(C(N)=O)cc(-c4ccccc4)cc23)CCS1(=O)=O (stereo not drawn)
Result: 2.34

Q: Identify measured half-life corresponding to NC(=O)c1cc(-c2ccccc2)cc2c(C3CCS(=O)(=O)CC3)c[nH]c12
Result: 1.58

Q: Give me measured half-life, please, for this compound: CC1(C)C[C@H](c2c[nH]c3c(C(N)=O)cc(-c4ccc(F)cc4)cc23)CCS1(=O)=O
Result: 4.5

Q: Respond only with half-life recorded for NCCS(=O)(=O)N1CCC(c2c[nH]c3c(C(N)=O)cc(-c4ccccc4)cc23)CC1
Result: 4.43
